Hey, just so you know, these numbers are from patent US4547507A.

assayed system: rat cortical muscarinic receptor
experimental details: Test D: [3H]Quinuclidinyl benzylate displacement from rat cortical muscarinic receptor binding sites
protocol conditions: rat cortical membranes, [3H]quinuclidinyl benzylate 0.31 nM, 25° C., 60 minutes; read-out: Test D MUSC IC50
Counter-ions that a name gives are not always drawn.
Kindly supply the reported pIC50 values for the records listed here.
Quick note: pIC50 means taking -log10 of the concentration in moles per liter.

Documented pIC50 of O=c1c2c(sc3ccc4ccccc4c13)CCNC2 [Example 5, hydrochloride] : 4.71

get_value(item= O=c1c2c(sc3ccccc13)CCN(CCO)C2 [Example 35] , readout=pIC50) returns 4.15

Short answer for CCOC(=O)CCN1CCc2sc3ccccc3c(=O)c2C1 [Example 21, hydrochloride] : pIC50 was 4.00

// pIC50 value for O=c1c2c(sc3c1ccc1ccccc13)CCNC2 [Example 8, hydrochloride] : 5.09

For CCCCCN1CCc2sc3ccccc3c(=O)c2C1 [Example 17, hydrochloride] the compound record lists pIC50 as 4.40

Notebook: CCN1CCc2sc3ccccc3c(=O)c2C1 [Example 13, hydrochloride] , pIC50 read as 4.35

So, COc1ccc2c(=O)c3c(sc2c1)CCNC3 [Example 3, hydrochloride] ? Its pIC50 was 4.57

Reported pIC50 of CCCCCCN1CCc2sc3ccccc3c(=O)c2C1 [Example 18, hydrochloride] : 4.80

Looking up CCCCN1CCc2sc3ccccc3c(=O)c2C1 [Example 14, hydrochloride] , I found its pIC50 recorded as 4.12

Reported pIC50 of CC(C)CCN1CCc2sc3ccccc3c(=O)c2C1 [Example 15] : 4.06

Short answer for COc1ccc2sc3c(c(=O)c2c1)CN(CC1CCCCC1)CC3 [Example 38, hydrochloride] : pIC50 was 4.04

Reported pIC50 for COc1ccc2sc3c(c(=O)c2c1)CNCC3 [Example 4, hydrochloride] was 4.24

The reported value for O=c1c2c(sc3ccccc13)CCN(C1CCCCC1)C2 [Example 37] in terms of pIC50 is 4.93

Reported pIC50 of C=CCN1CCc2sc3ccccc3c(=O)c2C1 [Example 34] : 4.43

###

assayed system: rat cortical muscarinic receptor
experimental details: Test D: [3H]Quinuclidinyl benzylate displacement from rat cortical muscarinic receptor binding sites
protocol conditions: rat cortical membranes, [3H]quinuclidinyl benzylate 0.31 nM, 25° C., 60 minutes; read-out: Test D MUSC IC50
Where a name gives a salt, the structure may show the parent alone.
IC50 strictly under 50 µM means yes (1); at 50 µM or over means no (0).

Q: I'd appreciate it if you could check whether CC(C)CN1CCc2sc3ccccc3c(=O)c2C1 [Example 19, hydrochloride] has IC50 smaller than 50 µM.
Ans: no (0)

Q: Is it true that IC50 reported for O=c1c2c(sc3ccccc13)CCN(CC1CCCC1)C2 is less than 50 µM?
Ans: no (0)

Q: In plain terms, does O=c1c2c(sc3ccccc13)CCN(CC1CCCCC1)C2 [Example 20, hydrochloride] come in under 50 µM for IC50?
Ans: no (0)

Q: Problem: For the compound NC(=O)CCN1CCc2sc3ccccc3c(=O)c2C1 [Example 23, hydrochloride] , is IC50 under 50 µM?
Ans: no (0)

Q: Does this compound meet the criterion IC50 < 50 µM? Cc1ccc2sc3c(c(=O)c2c1)CNCC3 [Example 2, hydrochloride]
Ans: yes (1)

Q: Field: below-cutoff. Rule: recorded IC50 strictly less than 50 µM. Subject: O=c1c2c(sc3ccc(Cl)cc13)CCNC2 [Example 7, hydrochloride]
Ans: no (0)

Q: Quick check: does O=c1c2c(sc3ccccc13)CCNC2 [Example 1, hydrochloride] have IC50 under 50 µM?
Ans: yes (1)

Q: is_below(IC50, 50 µM) for O=c1c2c(sc3ccccc13)CCN(CC1CCCCCC1)C2 ?
Ans: no (0)
